# measured-target: Recombinant human his-tagged IGF 1R extracellular domain protein (human) (UniProt P08069)
# assay-procedure: SPR, captured IgG, IGF-1R ECD-his analyte, dissociation pH 6
outcome-measure: kon

binder: VRDN-02527 (antibody, V domains shown) VH: EVQLVQSGGGLVKPGGSLRLSCAASGFTFSSFAMHWVRQAPGKGLEWISVIDTRGATYYADSVKGRFTISRDNAKNSLYLQMNSLRAEDTAVYYCARLGNFYYGMDHWGQGTTVTVSS VL: EIVLTQSPGTLSVSPGERATLSCRASQSIGSSLHWYQQKPGQAPRLLIKYASQSLSGIPDRFSGSGSGTDFTLTISRLEPEDFAVYYCHQSSRLPHTFGQGTKVEIK
reported-result: 38800 M⁻¹ s⁻¹
--
binder: VRDN-02549 (antibody, V domains shown) VH: EVQLVQSGGGLVKPGGSLRLSCAASGFTFSSFAMHWVRQAPGKGLEWISVIDTRGATYYADSVKGRFTISRDNAKNSLYLQMNSLRAEDTAVYYCARLGNFYYGMDVWGQGTTVTVSS VL: EIVLTQSPGTLSVSPGERATLSCRASQSIGSSLHWYQQKPGQAPRLLIKYASQSLSGIPDRFSGSGSGTDFTLTISRLEPEDFAVYYCHQSSHLPHTFGQGTKVEIK
reported-result: 39800 M⁻¹ s⁻¹
--
binder: VRDN-02525 (antibody, V domains shown) VH: EVQLVQSGGGLVKPGGSLRLSCAASGFTFSSFAMHWVRQAPGKGLEWISVIDTRGATYYADSVKGRFTISRDNAKNSLYLQMNSLRAEDTAVYYCARLGNFYYGHDVWGQGTTVTVSS VL: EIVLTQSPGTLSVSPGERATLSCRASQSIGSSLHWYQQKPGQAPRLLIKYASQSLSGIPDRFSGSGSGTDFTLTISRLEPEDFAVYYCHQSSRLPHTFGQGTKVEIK
reported-result: 32100 M⁻¹ s⁻¹
